# Test system: NCI-H522 lung
# test: NCI-60 one-dose screen, 48 h (100 = growth as untreated, 0 = no growth, -100 = all killed)
# test context: 10 µM unless noted
About 83,000 compounds went through this panel and 20% of them were active in at least one assay; those are over-represented in the sample as a whole.
Classification field. Basis: growth. Definitions: lo = under 20%, med = from 20% up to 80%, hi = 80% and over

compound	label class
CN1CCN(Cc2ccc(NC(=O)c3cncc(C#Cc4cnc5ccc(OCC(F)F)nn45)c3)cc2C(F)(F)F)CC1	lo
CN1CCN(Cc2ccc(NC(=O)c3cncc(C#Cc4cnc5ccc(OCCCS(C)(=O)=O)nn45)c3)cc2C(F)(F)F)CC1	lo
CC[C@H](CC[C@@H](C)[C@H]1CC[C@H]2[C@@H]3CC(=O)C4=CC(=O)/C(=C/c5ccc([N+](=O)[O-])cc5)C[C@]4(C)[C@H]3CC[C@]12C)C(C)C	hi
O=C(CSc1nnc(-c2ccc(Cl)cc2)n1-c1ccccc1)Nc1ccc(Cl)cc1	med
CC(=O)Nc1cc(N2CCOCC2)c2nc(NC(=O)c3[nH]c(C)c(Cl)c3Cl)sc2c1	med
CCN(CC)c1ccc(/C=N/NC(=O)c2ccc(S(N)(=O)=O)cc2)c(O)c1	lo
C#Cc1nc(/C=C\CCCCCCC(=O)NO)cs1	lo
CC1(C)CC[C@]2(C(=O)NCCCCCCN(CCCN)CCCN)CC[C@]3(C)C(=CC[C@@H]4[C@@]5(C)CC[C@H](O)C(C)(C)[C@@H]5CC[C@]43C)[C@@H]2C1	hi
Cc1ccc2c(n1)C(=O)C(Cl)=C(Nc1ccc(C#N)cc1)C2=O	med
O=C(CCCCCCNC(=O)C(O)(O)C(F)(F)F)Nc1nc2ccccc2s1	lo
Cc1ccc2c(n1)C(=O)C(Cl)=C(Nc1cccc(C(=O)OC(C)(C)C)c1)C2=O	med
N#Cc1c(-c2cccs2)cc(-c2cnccn2)nc1SCC(=O)N/N=C/c1ccncc1	hi
Cn1c(SCC(=O)c2ccco2)nc2ccccc2c1=O	hi
O=[N+]([O-])c1ccc(NC(=S)NNC(=S)Nc2ccc(F)cc2)cc1	med
OCC(Nc1ncnc2ccc(-c3cnc4cnccn34)cc12)c1ccccc1 (stereo not drawn)	med
Cc1ccccc1NC(=O)Nc1nc2ccc([N+](=O)[O-])cc2s1	lo

---

# System: HOP-92 NSCLC
# test: NCI-60 one-dose screen, 48 h
# test context: 10 µM unless noted
The panel holds about 83,000 compounds, 20% with a hit somewhere; the sample as a whole holds those more often. Calls of active or inactive are those of the source. How the source made its calls: active means growth percent below 10; inactive means the rest.
Outcomes: active, inactive

In [3]: df
Out[3]:
                                    compound  system_under_test  label_class
 0  Cc1c(C(=O)/C=C/c2ccc(Cl)cc2)nnn1-c1ccc2oc(=O)ccc2c1       HOP-92 NSCLC     inactive
 1  CC1(C)CC[C@]23CC[C@]4(C)[C@H](CC[C@@H]5[C@@]6(C)CC[C@H](N)C(C)(C)[C@@H]6CC[C@]54C)[C@H]2[C@H]1OC3       HOP-92 NSCLC     inactive
 2  CN1CCN(c2ccc(Nc3nc(NCCNS(=O)(=O)c4ccccc4)c4sccc4n3)cc2)CC1       HOP-92 NSCLC     inactive
 3  CCN(CC)c1ccc(/C=N/NC(=O)c2ccc(S(N)(=O)=O)cc2)c(O)c1       HOP-92 NSCLC     inactive
 4  CCCCCc1ccc(S(=O)(=O)Nc2cc(-c3csc(N)n3)ccc2OC)cc1       HOP-92 NSCLC     inactive
 5  CC(C)(C)c1cc(NC(=O)Nc2ccc(-c3cn4c5c(sc4n3)CCc3c[nH]cc3-5)cc2)no1       HOP-92 NSCLC     inactive
 6  O=C(N/N=C\c1ccc([N+](=O)[O-])cc1)c1ccc2nc(-c3ccc(Br)cc3)[nH]c2c1       HOP-92 NSCLC     inactive
 7  CC(C)NC(=O)c1cc(-c2ccc(NC(=O)Nc3ccc(F)cc3)cc2)nc2cccnc12       HOP-92 NSCLC     inactive
 8  O=C(CSc1nnc(-c2cccs2)n1-c1ccccc1)Nc1ccccc1F       HOP-92 NSCLC     inactive
 9  CCOC(=O)C(=O)Nc1ccc2c(ccn2C(=O)c2cccc(F)c2)c1       HOP-92 NSCLC     inactive
10  Cc1ccc(-c2nc(SCC(=O)c3ccccc3)nc(Nc3ccc(S(N)(=O)=O)cc3)c2C#N)cc1       HOP-92 NSCLC     inactive
11  Cc1ccc(CSC2=C(Cl)CN(c3ccc(Cl)cc3)C2=O)cc1       HOP-92 NSCLC     inactive
12  Cc1[nH]c(C(=O)Nc2ccc(C(N)=O)cc2N2CCOC(C)C2)c(Cl)c1Cl (stereo not drawn)       HOP-92 NSCLC     inactive
13  Nc1nc(=O)n([C@H]2C[C@H](O)[C@@H](CO)O2)cc1C=O       HOP-92 NSCLC     inactive
14  COc1ccc(-c2c(C(N)=O)c(N)n(Cc3nc4ccccc4[nH]3)c(=O)c2C#N)c(OC)c1       HOP-92 NSCLC     inactive
15  CC(Nc1ncnc2ccc(-c3cnc4cnccn34)cc12)c1ccccc1 (stereo not drawn)       HOP-92 NSCLC     inactive
16  Cn1cc(C2=C(c3coc4cc(Br)ccc34)C(=O)NC2=O)c2ccccc21       HOP-92 NSCLC     inactive
17  COc1cc(-c2nc(-c3ccccc3)[nH]c2-c2ccnc(NCCCNS(=O)(=O)c3ccc(C)cc3)n2)ccc1F       HOP-92 NSCLC     inactive
18    Nc1ncc(-c2ccc3ncnc(NCc4ccccc4)c3c2)cn1       HOP-92 NSCLC       active
19  COc1ccc(C(C)=C(c2ccc(OCCN(C)C)cc2)c2ccc(OCCN(C)C)cc2)cc1       HOP-92 NSCLC       active
20  C(=N\Nc1nc(N/N=C/c2ccc3c(c2)OCO3)nc(N2CCCCC2)n1)/c1ccc2c(c1)OCO2       HOP-92 NSCLC     inactive
21             CC(=O)Nc1ccccc1-c1nc2ccccc2s1       HOP-92 NSCLC     inactive
22  Cc1ccc(S(=O)(=O)c2nc(-c3ccc(F)cc3)oc2S(C)(=O)=O)cc1       HOP-92 NSCLC     inactive
23  Cc1ccc2c(n1)C(=O)C(Cl)=C(Nc1cccc(C)c1C)C2=O       HOP-92 NSCLC       active
24  O=S(=O)(Oc1ccc(-c2cn3ccsc3n2)cc1)c1cccc(C(F)(F)F)c1       HOP-92 NSCLC     inactive
25  CN1CCN(Cc2ccc(NC(=O)c3cncc(C#Cc4cnc5ccc(N)nn45)c3)cc2C(F)(F)F)CC1       HOP-92 NSCLC       active
26  Cc1ccc2c(n1)C(=O)C(Cl)=C(Nc1ccc(C)c(C)c1)C2=O       HOP-92 NSCLC     inactive
27  C#C[C@]1(O)CC[C@H]2[C@@H]3CC=C4c5sc(Nc6ccc(C)cn6)nc5CC[C@]4(C)[C@H]3CC[C@@]21C       HOP-92 NSCLC       active
28  CCc1cc2c(cc1Cl)nc1c(=O)[nH]c(=O)nc-1n2CCOCC(C)C       HOP-92 NSCLC     inactive
29  CC1=C(C)C(=O)C(Nc2ccc(C)c(C)c2)=C(Br)C1=O       HOP-92 NSCLC       active
30         CCCCSC1=C(Cl)CN(c2ccc(Cl)cc2)C1=O       HOP-92 NSCLC     inactive
31  Cc1ccc(S(=O)(=O)NCCCNc2nccc(-c3[nH]c(-c4ccccc4)nc3-c3ccc(F)c(O)c3)n2)cc1       HOP-92 NSCLC     inactive
32  CC1(C)CC[C@]2(C(=O)O)CC[C@]3(C)C(=CC[C@@H]4[C@@]5(C)CC[C@H](NOCCCN)C(C)(C)[C@@H]5CC[C@]43C)[C@@H]2C1       HOP-92 NSCLC     inactive
33  C[C@@H]1OCC2(CCN(c3cnc(C(=O)Nc4cc(F)cc5cccnc45)cn3)CC2)[C@@H]1N       HOP-92 NSCLC     inactive
34  CCOC(=O)c1c(NC(=O)c2cccc(C(F)(F)F)c2)sc2c3c(ccc12)OCN(C)C3       HOP-92 NSCLC     inactive
35  CC(C)(C)OC(=O)NCc1ccc(CNc2c([N+](=O)[O-])cnc3ccccc23)cc1       HOP-92 NSCLC     inactive
36  COc1cc(C(C)=C(c2ccc(OCCN(C)C)cc2)c2ccc(OCCN(C)C)cc2)ccc1F       HOP-92 NSCLC     inactive
37  O=C(CSc1cc[n+](CCCCO)c2ccccc12)n1ccc2ccccc21       HOP-92 NSCLC     inactive

Attribution: PubChem BioAssay (NCI)
